# Lookup of reported EC50 keyed by entry
# Experimental system: Streptokinase A (Streptococcus pyogenes serotype M1)
# Sequence (P10520 whole entry): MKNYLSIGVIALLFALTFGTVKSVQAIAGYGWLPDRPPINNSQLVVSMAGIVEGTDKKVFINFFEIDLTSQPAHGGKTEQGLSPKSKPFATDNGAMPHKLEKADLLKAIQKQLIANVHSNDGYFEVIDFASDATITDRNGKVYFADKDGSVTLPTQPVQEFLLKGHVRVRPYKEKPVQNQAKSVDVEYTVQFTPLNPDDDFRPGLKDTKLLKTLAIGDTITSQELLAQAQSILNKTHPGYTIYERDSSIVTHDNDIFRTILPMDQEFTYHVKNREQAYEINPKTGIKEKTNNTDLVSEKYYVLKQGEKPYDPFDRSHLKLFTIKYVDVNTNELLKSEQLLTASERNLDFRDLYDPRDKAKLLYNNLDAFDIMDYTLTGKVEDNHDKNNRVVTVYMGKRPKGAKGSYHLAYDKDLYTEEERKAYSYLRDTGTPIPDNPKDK
# Measurement description: S. pyogenes streptokinase expression inhibitors, potency, dose response, plasminogen activation absorbance, OD405 (AID 1914);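 also: secreted streptokinase activity via plasminogen activation per viability signal from cell pellet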
# Format: functional, Streptococcus pyogenes M1 GAS
Active and inactive are the calls of the source. Rule as the data show it: actives have a measured EC50 and inactives only a lower limit.

• Cc1noc(C)c1C(=O)Nc1nccs1 = > 150 µM (not active)
• O=[N+]([O-])c1cccnc1N1CCC(c2cc(-c3ccc(Cl)cc3Cl)[nH]n2)CC1 = 4.61 µM (active)
• O=c1[nH]c2c(s1)C=Nc1ccccc1N2 = > 150 µM (not active)
• COC(C(=O)Nc1ccnn1C1CCN(Cc2nccs2)CC1)c1ccccc1 (configuration not stated) = > 150 µM (not active)
• CCCC(=O)Nc1ccc2c(c1)nc(CCNC(=O)c1ccccc1)n2C = > 150 µM (not active)

Input line: Which EC50 is listed for Cc1ccc(C)c(N2CCN(C(=O)CCCCCn3c(=S)[nH]c4ccc(N5CCOCC5)cc4c3=O)CC2)c1 ?
Output line: > 150 µM (not active)

Input line: Which EC50 is listed for CC1CCCN(S(=O)(=O)c2ccc(C(=O)Nc3nnc(C4CC4)o3)cc2)C1 (configuration not stated) ?
Output line: > 150 µM (not active)

Input line: Which EC50 is listed for Sc1nnc(C2CCCCC2)n1/N=C/c1c(Cl)cccc1Cl ?
Output line: > 150 µM (not active)

Input line: Which EC50 is listed for CC1=NN(c2ccc([N+](=O)[O-])cc2)C(=O)/C1=C\N(C)C ?
Output line: > 150 µM (not active)

Input line: Which EC50 is listed for COc1ccc(CSCCNC(=S)Nc2ccccc2)cc1Cl ?
Output line: > 150 µM (not active)

Input line: Which EC50 is listed for N#Cc1c(-c2c(Cl)cccc2Cl)noc1/C=C/Nc1ccc(C(=O)O)cc1 ?
Output line: > 150 µM (not active)

Input line: Which EC50 is listed for Cc1cc(/C=N/n2cnnc2)c(C)n1-c1ccc(OCc2ccc(Cl)cc2Cl)cc1 ?
Output line: > 150 µM (not active)

Input line: Which EC50 is listed for CCN(CC)C(=O)c1cc(-c2ccc(Br)cc2)on1 ?
Output line: > 150 µM (not active)

Input line: Which EC50 is listed for Cc1ccc2nc(NNC(=O)c3ccc(S(=O)(=O)N4CCc5ccccc5C4)cc3)sc2c1 ?
Output line: > 150 µM (not active)

Input line: Which EC50 is listed for CN1C(=O)/C(=C/c2ccccc2F)Sc2ccc(C(=O)NCC3CCCO3)cc21 (configuration not stated) ?
Output line: > 150 µM (not active)

Input line: Which EC50 is listed for c1ccc(-c2noc(-c3ccccc3-c3ccccc3)n2)cc1 ?
Output line: 21.5 µM (active)

Input line: Which EC50 is listed for COC(=O)c1c[nH]nc1N=C(S)Nc1ccc(C)cc1Cl ?
Output line: 56.8 µM (active)
